System: Klebsiella pneumoniae IFO 3317
ASSAY_NOTES: MIC against standard strains (Test Example 1)
Format: cell-based
STATED_CONDITIONS: IFO3317, Muller-Hinton agar, 37°C overnight
Where a name gives a salt, the structure may show the parent alone.
MEASURE: MIC (µg/mL)

1) Nc1ccc[n+](CC2=C(C(=O)[O-])N3C(=O)[C@@H](NC(=O)/C(=N\O)c4csc(N)n4)[C@H]3SC2)c1 [Compound (3), hydrochloride] : 0.1
2) CN(C)CCn1nnnc1SCC1=C(C(=O)O)N2C(=O)[C@@H](NC(=O)Cc3csc(N)n3)[C@H]2SC1 [CTM, cefotiam, reference compound] : 0.1
3) CC(=O)c1ccc[n+](CC2=C(C(=O)[O-])N3C(=O)[C@@H](NC(=O)/C(=N\O)c4csc(N)n4)[C@H]3SC2)c1 : 0.39
4) NC(=O)c1ccc[n+](CC2=C(C(=O)[O-])N3C(=O)[C@@H](NC(=O)/C(=N\O)c4csc(N)n4)[C@H]3SC2)c1 : 0.2

----------
List of MIC values.
System: E. coli CSH2 (RE45)
ASSAY_NOTES: MIC against standard strains (Test Example 3)
Format: cell-based
STATED_CONDITIONS: Escherichia coli
MEASURE: MIC (µg/mL)

1) CNC(=O)c1ccc[n+](CC2=C(C(=O)[O-])N3C(=O)[C@@H](NC(=O)/C(=N\O)c4csc(N)n4)[C@H]3SC2)c1 : 0.78
2) Cc1nnc(SCC2=C(C(=O)O)N3C(=O)[C@@H](NC(=O)Cn4cnnn4)[C@H]3SC2)s1 [CEZ, cefazolin, reference compound] : 1.56
3) Cc1nc(-c2ccc[n+](CC3=C(C(=O)[O-])N4C(=O)[C@@H](NC(=O)/C(=N\O)c5csc(N)n5)[C@H]4SC3)c2)cs1 : 0.39
4) CO[C@@]1(NC(=O)CSC(F)F)C(=O)N2C(C(=O)O)=C(CSc3nnnn3CCO)CO[C@@H]21 [FMOX, flomoxef, reference compound] : 0.05
5) Nc1nc(/C(=N/O)C(=O)N[C@@H]2C(=O)N3C(C(=O)[O-])=C(C[n+]4cccc(-c5csc(N)n5)c4)CS[C@H]23)cs1 : 0.39
6) NC(=O)Oc1ccc[n+](CC2=C(C(=O)[O-])N3C(=O)[C@@H](NC(=O)/C(=N\O)c4csc(N)n4)[C@H]3SC2)c1 : 0.2

----------
Tested on: Klebsiella pneumoniae IFO 3317
ASSAY_NOTES: MIC against standard strains (Test Example 1)
Type: cell-based
STATED_CONDITIONS: IFO3317, Muller-Hinton agar, 37°C overnight
Experimental: By using each test strain cultured overnight at 37°C in a Muller-Hinton broth, there was prepared a bacterial solution with a bacterial cell population of 1 x 10^6 CFU/mi of the same bouillon. The bacterial solution was inoculated into the Muller-Hinton agar media each containing respectively one test agent and, after overnight incubation at 37°C, the minimum concentration that inhibited growth of the bacteria was determined and shown as MIC also in Table 1. […]
MEASURE: MIC

1. Nc1nc(/C(=N/O)C(=O)N[C@@H]2C(=O)N3C(C(=O)[O-])=C(C[n+]4ccc(-c5csc(N)n5)cc4)CS[C@H]23)cs1 : 0.05 µg/mL
2. NC(=O)Nc1ccc[n+](CC2=C(C(=O)[O-])N3C(=O)[C@@H](NC(=O)/C(=N\O)c4csc(N)n4)[C@H]3SC2)c1 : 0.1 µg/mL
3. CO[C@@]1(NC(=O)CSC(F)F)C(=O)N2C(C(=O)O)=C(CSc3nnnn3CCO)CO[C@@H]21 [FMOX, flomoxef, reference compound] : 0.05 µg/mL

----------
Test system: K. pneumoniae No. 42
ASSAY_NOTES: MIC against standard strains (Test Example 3)
Assay type: cell-based
STATED_CONDITIONS: Klebsiella pneumoniae; K. pneumoniae No. 42 (Test Example 3); read-out: MIC
MEASURE: MIC (µg/mL)

1. Cc1nc(-c2cc[n+](CC3=C(C(=O)[O-])N4C(=O)[C@@H](NC(=O)/C(=N\O)c5csc(N)n5)[C@H]4SC3)cc2)cs1 [Compound (13)] : 0.78
2. CCN(CC)C(=O)c1ccc[n+](CC2=C(C(=O)[O-])N3C(=O)[C@@H](NC(=O)/C(=N\O)c4csc(N)n4)[C@H]3SC2)c1 [Compound (14)] : 3.13
3. CO[C@@]1(NC(=O)CSC(F)F)C(=O)N2C(C(=O)O)=C(CSc3nnnn3CCO)CO[C@@H]21 [FMOX, flomoxef, reference compound] : 0.05
4. Cc1nnc(SCC2=C(C(=O)O)N3C(=O)[C@@H](NC(=O)Cn4cnnn4)[C@H]3SC2)s1 [CEZ, cefazolin, reference compound] : 3.13
5. NC(=O)Cc1ccc[n+](CC2=C(C(=O)[O-])N3C(=O)[C@@H](NC(=O)/C(=N\O)c4csc(N)n4)[C@H]3SC2)c1 [Compound (7)] : 0.39

----------
Measured MIC values are reported for all entries that follow.
System: C. freundii ATCC8090
ASSAY_NOTES: MIC against standard strains (Test Example 3)
Format: cell-based
STATED_CONDITIONS: Citrobacter freundii; C. freundii ATCC8090 (Test Example 3); read-out: MIC
MEASURE: MIC (µg/mL)

1) Cc1nc(-c2ccc[n+](CC3=C(C(=O)[O-])N4C(=O)[C@@H](NC(=O)/C(=N\O)c5csc(N)n5)[C@H]4SC3)c2)cs1 : 0.39
2) Nc1nc(/C(=N/O)C(=O)N[C@@H]2C(=O)N3C(C(=O)[O-])=C(C[n+]4cccc(-c5csc(N)n5)c4)CS[C@H]23)cs1 : 0.2
3) CNc1nc(-c2ccc[n+](CC3=C(C(=O)[O-])N4C(=O)[C@@H](NC(=O)/C(=N\O)c5csc(N)n5)[C@H]4SC3)c2)cs1 : 1.56
4) CO[C@@]1(NC(=O)CSC(F)F)C(=O)N2C(C(=O)O)=C(CSc3nnnn3CCO)CO[C@@H]21 [FMOX, flomoxef, reference compound] : 0.39
5) CCN(CC)C(=O)c1ccc[n+](CC2=C(C(=O)[O-])N3C(=O)[C@@H](NC(=O)/C(=N\O)c4csc(N)n4)[C@H]3SC2)c1 : 0.78
6) Cc1nc(-c2cc[n+](CC3=C(C(=O)[O-])N4C(=O)[C@@H](NC(=O)/C(=N\O)c5csc(N)n5)[C@H]4SC3)cc2)cs1 : 0.2

----------
// reported MIC per item
Test system: K. pneumoniae No. 42
ASSAY_NOTES: MIC against standard strains (Test Example 3)
Format: cell-based
STATED_CONDITIONS: Klebsiella pneumoniae; K. pneumoniae No. 42 (Test Example 3); read-out: MIC
MEASURE: MIC (µg/mL)

1) CN(C)CCn1nnnc1SCC1=C(C(=O)O)N2C(=O)[C@@H](NC(=O)Cc3csc(N)n3)[C@H]2SC1 [CTM, cefotiam, reference compound] : 0.39
2) CNc1nc(-c2cc[n+](CC3=C(C(=O)[O-])N4C(=O)[C@@H](NC(=O)/C(=N\O)c5csc(N)n5)[C@H]4SC3)cc2)cs1 : 0.78
3) CNC(=O)c1ccc[n+](CC2=C(C(=O)[O-])N3C(=O)[C@@H](NC(=O)/C(=N\O)c4csc(N)n4)[C@H]3SC2)c1 : 0.78
4) Nc1nc(/C(=N/O)C(=O)N[C@@H]2C(=O)N3C(C(=O)[O-])=C(C[n+]4cccc(-c5csc(N)n5)c4)CS[C@H]23)cs1 : 0.78
5) CNc1nc(-c2ccc[n+](CC3=C(C(=O)[O-])N4C(=O)[C@@H](NC(=O)/C(=N\O)c5csc(N)n5)[C@H]4SC3)c2)cs1 : 6.25
6) Cc1nc(-c2ccc[n+](CC3=C(C(=O)[O-])N4C(=O)[C@@H](NC(=O)/C(=N\O)c5csc(N)n5)[C@H]4SC3)c2)cs1 : 0.78

----------
Tested on: P. aeruginosa NCTC10490
ASSAY_NOTES: MIC against standard strains (Test Example 3)
Type: cell-based
STATED_CONDITIONS: Pseudomonas aeruginosa; P. aeruginosa NCTC10490 (Test Example 3); read-out: MIC
MEASURE: MIC (µg/mL)

1. Cc1nc(-c2ccc[n+](CC3=C(C(=O)[O-])N4C(=O)[C@@H](NC(=O)/C(=N\O)c5csc(N)n5)[C@H]4SC3)c2)cs1 [Compound (11)] : 6.25
2. CNc1nc(-c2ccc[n+](CC3=C(C(=O)[O-])N4C(=O)[C@@H](NC(=O)/C(=N\O)c5csc(N)n5)[C@H]4SC3)c2)cs1 [Compound (10)] : 25
3. CNC(=O)c1ccc[n+](CC2=C(C(=O)[O-])N3C(=O)[C@@H](NC(=O)/C(=N\O)c4csc(N)n4)[C@H]3SC2)c1 [Compound (6)] : 3.13

----------
Test system: E. coli CSH2 (RE45)
ASSAY_NOTES: MIC against standard strains (Test Example 3)
Assay type: cell-based
STATED_CONDITIONS: Escherichia coli
MEASURE: MIC (µg/mL)

1) Cc1nc(-c2cc[n+](CC3=C(C(=O)[O-])N4C(=O)[C@@H](NC(=O)/C(=N\O)c5csc(N)n5)[C@H]4SC3)cc2)cs1 : 0.2
2) CNc1nc(-c2ccc[n+](CC3=C(C(=O)[O-])N4C(=O)[C@@H](NC(=O)/C(=N\O)c5csc(N)n5)[C@H]4SC3)c2)cs1 : 1.56
3) CN(C)CCn1nnnc1SCC1=C(C(=O)O)N2C(=O)[C@@H](NC(=O)Cc3csc(N)n3)[C@H]2SC1 [CTM, cefotiam, reference compound] : 0.1
4) CNc1nc(-c2cc[n+](CC3=C(C(=O)[O-])N4C(=O)[C@@H](NC(=O)/C(=N\O)c5csc(N)n5)[C@H]4SC3)cc2)cs1 : 0.2
5) NC(=O)Cc1ccc[n+](CC2=C(C(=O)[O-])N3C(=O)[C@@H](NC(=O)/C(=N\O)c4csc(N)n4)[C@H]3SC2)c1 : 0.2
6) CCN(CC)C(=O)c1ccc[n+](CC2=C(C(=O)[O-])N3C(=O)[C@@H](NC(=O)/C(=N\O)c4csc(N)n4)[C@H]3SC2)c1 : 0.78
